assayed.system: CLK1 (Homo sapiens)
Construct: host or cells: Sf9 insect cells (baculovirus)
Sequence (P49759 whole entry): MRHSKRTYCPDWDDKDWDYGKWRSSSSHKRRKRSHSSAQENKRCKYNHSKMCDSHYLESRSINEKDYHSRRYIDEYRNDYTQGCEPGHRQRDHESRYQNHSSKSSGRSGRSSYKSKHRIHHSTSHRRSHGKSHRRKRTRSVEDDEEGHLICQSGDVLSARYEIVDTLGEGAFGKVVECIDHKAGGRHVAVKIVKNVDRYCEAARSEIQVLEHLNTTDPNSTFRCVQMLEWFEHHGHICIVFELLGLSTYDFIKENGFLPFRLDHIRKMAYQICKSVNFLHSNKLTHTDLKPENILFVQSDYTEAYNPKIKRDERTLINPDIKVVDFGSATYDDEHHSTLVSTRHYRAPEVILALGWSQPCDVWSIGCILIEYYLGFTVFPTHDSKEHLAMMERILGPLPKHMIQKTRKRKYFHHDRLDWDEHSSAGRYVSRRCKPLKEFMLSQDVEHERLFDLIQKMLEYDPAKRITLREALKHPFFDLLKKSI
method.description: ADP-Glo kinase inhibition assay, CLK1
Format: biochemical
condition.notes: 1 μM compound; percentage of maximum activity of the DMSO control; mean n = 2; 10 µM ATP; read-out: Residual activity CLK1
measured.parameter: remaining activity at 1 µM (%)
Quick reminder: number only, in %, skip the unit.

Worked examples follow.
compound	assayed.system	remaining activity at 1 µM [%]
COC(=N)c1nc2cc3c(Nc4ccc(OC)cc4F)ncnc3cc2s1 [Compound 15a]	CLK1 (Homo sapiens)	89
COC(=N)c1nc2cc3ncnc(Nc4ccc(OC)cc4F)c3cc2s1 [Compound 15b]	CLK1 (Homo sapiens)	102
COC(=N)c1nc2ccc3c(=O)n(Cc4ccccc4)cnc3c2s1 [Compound 6d]	CLK1 (Homo sapiens)	89
COC(=N)c1nc2cc3ncn(Cc4ccccc4)c(=O)c3cc2s1 [Compound 6b]	CLK1 (Homo sapiens)	100
COC(=N)c1nc2cc3c(=O)n(Cc4ccccc4)cnc3cc2s1 [Compound 6a]	CLK1 (Homo sapiens)	97

Form field: reported remaining activity at 1 µM of COC(=N)c1nc2ccc3ncn(Cc4ccccc4)c(=O)c3c2s1 [Compound I, reference compound]
75

Form field: reported remaining activity at 1 µM of COC(=N)c1nc2c(ccc3c(=O)n(Cc4ccccc4)cnc32)s1 [Compound 6c]
95

###

method.description: In vitro cytotoxic assay, Huh7-D12
Assay type: cell-based
condition.notes: human, Huh7-D12 cells (liver cancer cell line)
measured.parameter: log10 IC50 at 48 h (log10 of the value in µM)
A value of 2 here means IC50 at 48 h of 100 in µM, since values are log10.

compound	measured.parameter	reading
COc1cccc2c1C(=O)c1c(O)c3c(c(O)c1C2=O)C[C@@](O)(C(=O)CO)C[C@@H]3O[C@H]1C[C@H](N)[C@H](O)[C@H](C)O1 [Doxo, Doxorubicin, reference compound]	log10 IC50 at 48 h	-1.52

Form field: reported log10 IC50 at 48 h of CC(=O)O[C@H]1C(=O)[C@@]2(C)[C@H]([C@H](OC(=O)c3ccccc3)[C@]3(O)C[C@H](OC(=O)[C@H](O)[C@@H](NC(=O)c4ccccc4)c4ccccc4)C(C)=C1C3(C)C)[C@]1(OC(C)=O)CO[C@@H]1C[C@@H]2O [Taxol, reference compound]
-1.80

###

Recorded measurements of IC50 at 48 h, one per entry
method.description: In vitro cytotoxic assay, MCF-7; note: 0.1-25 µM tested
Assay type: cell-based
condition.notes: human, MCF-7 cells (breast cancer cell line)
Quick reminder: number only, in µM, skip the unit.

Form field: reported IC50 at 48 h of `COC(=N)c1nc2cc3c(=O)n(Cc4ccccc4)cnc3cc2s1`
17

Form field: reported IC50 at 48 h of `COC(=N)c1nc2ccc3c(=O)n(Cc4ccccc4)cnc3c2s1`
8

Form field: reported IC50 at 48 h of `N#Cc1nc2cc3ncn(Cc4ccccc4)c(=O)c3cc2s1`
2

Form field: reported IC50 at 48 h of CC(=O)O[C@H]1C(=O)[C@@]2(C)[C@H]([C@H](OC(=O)c3ccccc3)[C@]3(O)C[C@H](OC(=O)[C@H](O)[C@@H](NC(=O)c4ccccc4)c4ccccc4)C(C)=C1C3(C)C)[C@]1(OC(C)=O)CO[C@@H]1C[C@@H]2O [Taxol, reference compound]
0.006
